Values were extracted from patent US9522945B2.

- Parameters: species or system rats
- protocol-conditions: rat, in vivo, sc, 230 ug/kg;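 also: blood drawn at alternating time points, with three animals in each cohort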
Measured T½ accompanies every entry in the list below.
measurement-name: T½ (h)

[[record]]
molecule = "CTP-CTP-OXM: oxyntomodulin with two CTPs on the amino terminus, SEQ ID NO: 23 (protein, CTPx2-OXM) MATGSRTSLLLAFGLLCLPWLQEGSASSSSKAPPPSLPSPSRLPGPSDTPILPQSSSSKAPPPSLPSPSRLPGPSDTPILPQHSQGTFTSDYSKYLDSRRAQDFVQWLMNTKRNRNNIARSGCGRGTLGLMGLPFTARFP"
test_result = 2.74

[[record]]
molecule = "CTP-OXM-CTP-CTP: oxyntomodulin with one CTP on the amino terminus and two on the carboxy terminus, SEQ ID NO: 15 (protein, CTP-OXM-CTP-CTP) MATGSRTSLLLAFGLLCLPWLQEGSASSSSKAPPPSLPSPSRLPGPSDTPILPQHSQGTFTSDYSKYLDSRRAQDFVQWLMNTKRNRNNIASSSSKAPPPSLPSPSRLPGPSDTPILPQSSSSKAPPPSLPSPSRLPGPSDTPILPQ"
test_result = 4.39

[[record]]
molecule = "CTP-OXM-CTP: oxyntomodulin with one CTP on the amino terminus and one on the carboxy terminus, SEQ ID NO: 9 (protein, CTP-OXM-CTP) MATGSRTSLLLAFGLLCLPWLQEGSASSSSKAPPPSLPSPSRLPGPSDTPILPQHSQGTFTSDYSKYLDSRRAQDFVQWLMNTKRNRNNIASSSSKAPPPSLPSPSRLPGPSDTPILPQ"
test_result = 3.28

[[record]]
molecule = "OXM-CTP-CTP: oxyntomodulin with two CTPs in tandem on the carboxy terminus, SEQ ID NO: 21, expressed in CHO cells (protein, OXM-CTP-CTP) LEDMATGSRTSLLLAFGLLCLPWLQEGSAHSQGTFTSDYSKYLDSRRAQDFVQWLMNTKRNRNNIASSSSKAPPPSLPSPSRLPGPSDTPILPQSSSSKAPPPSLPSPSRLPGPSDTPILPQ"
test_result = 4.76

